# Subject Of Test: UniProt:P31424
# Sequence (P31424 21-1203): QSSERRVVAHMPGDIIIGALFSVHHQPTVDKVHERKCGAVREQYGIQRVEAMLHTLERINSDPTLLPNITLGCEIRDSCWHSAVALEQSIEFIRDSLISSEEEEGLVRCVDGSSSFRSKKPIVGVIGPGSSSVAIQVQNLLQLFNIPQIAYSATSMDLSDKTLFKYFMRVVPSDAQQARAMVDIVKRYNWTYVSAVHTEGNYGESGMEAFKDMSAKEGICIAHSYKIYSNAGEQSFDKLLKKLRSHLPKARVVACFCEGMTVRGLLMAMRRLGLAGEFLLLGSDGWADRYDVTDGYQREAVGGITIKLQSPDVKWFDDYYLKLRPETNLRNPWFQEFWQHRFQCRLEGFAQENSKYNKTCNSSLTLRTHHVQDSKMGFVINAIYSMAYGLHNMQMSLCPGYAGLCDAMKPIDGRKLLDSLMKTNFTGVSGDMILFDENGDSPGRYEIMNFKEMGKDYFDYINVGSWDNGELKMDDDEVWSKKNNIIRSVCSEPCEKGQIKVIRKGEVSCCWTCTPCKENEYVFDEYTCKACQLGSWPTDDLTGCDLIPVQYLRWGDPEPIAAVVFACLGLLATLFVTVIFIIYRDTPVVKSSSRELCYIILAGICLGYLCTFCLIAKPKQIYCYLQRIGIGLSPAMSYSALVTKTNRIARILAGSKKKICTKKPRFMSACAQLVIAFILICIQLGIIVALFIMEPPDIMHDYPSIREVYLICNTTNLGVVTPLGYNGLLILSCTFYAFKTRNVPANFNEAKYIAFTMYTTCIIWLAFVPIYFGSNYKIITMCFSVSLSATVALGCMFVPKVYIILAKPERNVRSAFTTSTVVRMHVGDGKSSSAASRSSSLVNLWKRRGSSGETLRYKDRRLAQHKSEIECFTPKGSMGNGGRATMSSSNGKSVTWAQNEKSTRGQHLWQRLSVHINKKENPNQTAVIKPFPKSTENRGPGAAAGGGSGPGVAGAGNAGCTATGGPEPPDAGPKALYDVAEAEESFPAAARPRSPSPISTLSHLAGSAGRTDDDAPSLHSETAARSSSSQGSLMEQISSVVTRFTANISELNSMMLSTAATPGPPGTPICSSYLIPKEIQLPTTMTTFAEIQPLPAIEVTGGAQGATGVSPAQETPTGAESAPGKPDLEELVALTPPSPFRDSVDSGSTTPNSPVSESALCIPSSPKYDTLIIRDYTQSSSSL
Readout Kind: Ki (nM)
All answers are understood in nM, so give the number only.

Asked: Look up Ki for this compound: `N#Cc1cc(F)cc(S(=O)(=O)c2sc3ncc(N)cc3c2-c2cccc(F)c2)c1`
Given back: 1.9
